tested.on: Recombinant Human NF-kappaB-Inducing Kinase (NIK/MAP3K14) (Homo sapiens, UniProt Q99558)
Sequence (Q99558 whole entry): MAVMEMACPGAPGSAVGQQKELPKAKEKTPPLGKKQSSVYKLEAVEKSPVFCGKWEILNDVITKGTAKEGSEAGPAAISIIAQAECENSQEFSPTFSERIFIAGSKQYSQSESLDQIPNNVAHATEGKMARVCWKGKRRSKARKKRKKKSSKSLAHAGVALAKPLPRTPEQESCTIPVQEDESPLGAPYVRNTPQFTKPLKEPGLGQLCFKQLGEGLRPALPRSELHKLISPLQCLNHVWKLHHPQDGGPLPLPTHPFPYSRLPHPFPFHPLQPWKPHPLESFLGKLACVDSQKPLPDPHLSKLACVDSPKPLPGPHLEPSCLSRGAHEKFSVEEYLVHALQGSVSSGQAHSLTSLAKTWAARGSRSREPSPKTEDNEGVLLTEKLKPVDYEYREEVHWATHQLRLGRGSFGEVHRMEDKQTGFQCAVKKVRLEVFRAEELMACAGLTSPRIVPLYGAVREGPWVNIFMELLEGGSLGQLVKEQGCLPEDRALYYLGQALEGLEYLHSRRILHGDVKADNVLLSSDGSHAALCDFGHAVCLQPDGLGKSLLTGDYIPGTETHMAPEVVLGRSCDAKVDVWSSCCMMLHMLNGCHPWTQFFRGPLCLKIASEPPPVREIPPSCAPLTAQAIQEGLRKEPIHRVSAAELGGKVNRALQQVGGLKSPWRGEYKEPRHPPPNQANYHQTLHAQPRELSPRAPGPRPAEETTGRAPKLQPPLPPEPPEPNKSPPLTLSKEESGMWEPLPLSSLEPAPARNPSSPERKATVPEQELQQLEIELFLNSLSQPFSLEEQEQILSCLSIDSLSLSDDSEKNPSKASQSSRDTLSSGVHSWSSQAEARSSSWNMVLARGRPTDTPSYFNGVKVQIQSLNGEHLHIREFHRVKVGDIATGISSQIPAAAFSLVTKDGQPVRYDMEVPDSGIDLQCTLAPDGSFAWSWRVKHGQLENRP
procedure.text: Biological Assay A2: inhibition of auto-phosphorylation of recombinant human NIK/MAP3K14 (AlphaScreen)
Assay type: biochemical
experimental.parameters: auto-phosphorylation; averaged over all measurements on all batches; read-out: αscreen IC50
The entries below are paired with their reported log10 IC50.
Give log10 of IC50, with IC50 taken in nM.

The cases that follow already have their log10 IC50 on record.
compound: CC(O)(C#Cc1cc2c(-c3nc(N)ncc3F)cn(C3CCOC3)c2cn1)C1CC1 (stereo not drawn) [Compound 131]
log10 IC50: 1.32
//
compound: COCCn1cc(-c2ccnc(N)n2)c2cc(C#CC(C)(O)C3CCNCC3)ncc21 (stereo not drawn) [Compound 115]
log10 IC50: 3.69

Q. Which log10 IC50 is reported for this compound? CC(C)(O)C#Cc1cc2c(-c3nc(N)ncc3C(F)(F)F)c[nH]c2cn1 [Compound 61]
A. 0.70

Q. Which log10 IC50 is reported for this compound? Nc1ncc(F)c(-c2cn(C3COC3)c3cnc(C#CC(O)(CF)C4CC4)cc23)n1 (stereo not drawn) [Compound 137]
A. 1.72

Q. Which log10 IC50 is reported for this compound? CNC(=O)CCn1cc(-c2ccnc(N)n2)c2cc(C#CC(C)(C)O)ncc21 [Compound 49]
A. 2.56

Q. Which log10 IC50 is reported for this compound? Nc1nccc(-c2c[nH]c3cnc(C#CC4(O)CC4)cc23)n1 [Compound 9]
A. 0.30

Q. Which log10 IC50 is reported for this compound? CC(C)(O)C#Cc1cc2c(-c3ccnc(N)n3)cn(CC#N)c2cn1 [Compound 56]
A. 1.26

Q. Which log10 IC50 is reported for this compound? Cc1c(-c2ccnc(N)n2)c2cc(C#CC(C)(C)O)ncc2n1CC(C)(C)O [Compound 46]
A. 1.74

Q. Which log10 IC50 is reported for this compound? CN1CCC(n2cc(-c3ccnc(N)n3)c3cc(C#CC(C)(C)O)ncc32)CC1 [Compound 77]
A. 1.94

Q. Which log10 IC50 is reported for this compound? COCCCn1cc(-c2nc(N)ncc2F)c2cc(C#CC(C)(C)O)nc(C)c21 [Compound 86]
A. 1.04

Q. Which log10 IC50 is reported for this compound? CC(C)(O)Cn1cc(-c2ccnc(N)n2)c2cc(C#CC(C)(O)C3(C)COC3)ncc21 (stereo not drawn) [Compound 47]
A. 3.96

Q. Which log10 IC50 is reported for this compound? CC(C)(O)C#Cc1cc2c(-c3nc(N)ncc3F)cn(C3CN(C4CC4)C3)c2cn1 [Compound 166]
A. 1.88

Q. Which log10 IC50 is reported for this compound? CC(C)(O)C#Cc1cc2c(-c3ccnc(N)n3)cn(CCC(C)(C)O)c2cn1 [Compound 51]
A. 1.36

Q. Which log10 IC50 is reported for this compound? CC(C)N1CCC(n2cc(-c3ccnc(N)n3)c3cc(C#CC(C)(C)O)ncc32)CC1 [Compound 78]
A. 2.11

Q. Which log10 IC50 is reported for this compound? CC(C)n1cc(-c2ccnc(N)n2)c2cc(C#CCO)ncc21 [Compound 13]
A. 2.18

Q. Which log10 IC50 is reported for this compound? CC(C)N1CC(n2cc(-c3nc(N)ncc3F)c3cc(C#CC(C)(O)C4CC4)ncc32)C1 (stereo not drawn) [Compound 159]
A. 2.43

---

tested.on: Recombinant Human NF-kappaB-Inducing Kinase (NIK/MAP3K14) (Homo sapiens)
procedure.text: Biological Assay A: inhibition of recombinant human NIK/MAP3K14 activity (MBP phosphorylation, Mesoscale)
Format: biochemical
experimental.parameters: averaged over all measurements on all batches; read-out: Biochemical (MSD MBP) IC50
The entries below are paired with their reported IC50.
Dear colleague, please return just the value in nM, with no unit written.

The cases that follow already have their IC50 on record.
compound: CC(C)(O)C#Cc1cc2c(-c3nc(N)ncc3F)cn(C3COC3)c2cn1
reported.value: 17
//
compound: COCCNC(=O)c1[nH]c2cnc(C#CC(C)(C)O)cc2c1-c1ccnc(N)n1
reported.value: 29
//
compound: CC(C)(O)C#Cc1cc2c(-c3ccnc(N)n3)cn(CC(C)(C)O)c2cn1
reported.value: 15

Lab note: next compound to report on.
Q. Which IC50 is reported for this compound? CC(C)(O)Cn1cc(-c2ccnc(N)n2)c2cc(C#CC(C)(O)C3(C)COC3)ncc21 (stereo not shown)
A. 2900

---

System: L-363 cells
procedure.text: Biological Assay C: antiproliferative activity on L-363 cells (CellTiter-Glo)
Format: cell-based, human
experimental.parameters: Homo sapiens, L-363, 72 h, 72 hr treatment; averaged values
pEC50: −log10 of the molar value.
Outcome label depends on pEC50 relative to 6: at/above gives T, below gives F.

compound: CC(O)(C#Cc1cc2c(-c3nc(N)ncc3F)cn(C3COC3)c2c(C2CC2)n1)C1CC1 (stereo not drawn)
classification: T
//
compound: CC(O)(C#Cc1cc2c(-c3nc(N)ncc3F)cn(C3CN(CC4CC4)C3)c2cn1)C1CC1 (stereo not drawn)
classification: T
//
compound: CC(C)(O)Cn1cc(-c2ccnc(N)n2)c2cc(C#CC(C)(O)C3CCC3)ncc21 (stereo not drawn)
classification: F
//
compound: CC(=O)N1CC(n2cc(-c3nc(N)ncc3F)c3cc(C#CC(C)(O)C4CC4)ncc32)C1 (stereo not drawn)
classification: F
//
compound: COCCn1cc(-c2ccnc(N)n2)c2cc(C#CC(C)(O)C3CCNCC3)ncc21 (stereo not drawn)
classification: F

Q. Please indicate if the recorded pEC50 for CCC(C)(O)C#Cc1cc2c(-c3ccnc(N)n3)cn(CC(C)(C)O)c2cn1 (stereo not drawn) meets or exceeds 6.
A. F

Q. Please indicate if the recorded pEC50 for COCCCn1cc(-c2nc(N)ncc2F)c2cc(C#CC3(O)CCC3)ncc21 meets or exceeds 6.
A. T

Q. Please indicate if the recorded pEC50 for COCC(C)n1cc(-c2nc(N)ncc2F)c2cc(C#CC(C)(O)C3CC3)ncc21 (stereo not drawn) meets or exceeds 6.
A. T

---

Tested on: JJN-3 cells
procedure.text: Biological Assay C: antiproliferative activity on JJN-3 cells (CellTiter-Glo)
Assay type: cell-based, human
experimental.parameters: 72 hr treatment; averaged values
measured.property: pEC50
Convention used: pEC50 is expressed as -log10 of the molar concentration.

The cases that follow already have their pEC50 on record.
compound: COCCCn1cc(-c2nc(N)ncc2F)c2cc(C#CC(C)(O)C3CC3)ncc21 (single isomer, unassigned) [Compound 120]
pEC50: 7.02
//
compound: COCCN1CCC(n2cc(-c3nc(N)ncc3F)c3cc(C#CC(C)(O)C4CC4)ncc32)CC1 (centres unmarked)
pEC50: 6.57
//
compound: CC(O)(C#Cc1cc2c(-c3nc(N)ncc3F)cn(C3COC3)c2cn1)C1CC1 (single isomer, unassigned) [Compound 121]
pEC50: 5.85
//
compound: COCCCn1cc(-c2nc(N)ncc2F)c2cc(C#CC(C)(O)C3CC3)ncc21 (single isomer, unassigned) [Compound 119]
pEC50: 6.15

Q. Which pEC50 is reported for this compound? CC(O)(C#Cc1cc2c(-c3nc(N)ncc3F)cn(C3COC3)c2cn1)C1CC1 (single isomer, unassigned) [Compound 122]
A. 7.00

---

tested.on: Recombinant Human NF-kappaB-Inducing Kinase (NIK/MAP3K14) (Homo sapiens, UniProt Q99558)
procedure.text: Biological Assay A2: inhibition of auto-phosphorylation of recombinant human NIK/MAP3K14 (AlphaScreen)
Type: biochemical
experimental.parameters: auto-phosphorylation; averaged over all measurements on all batches; read-out: αscreen IC50
measured.property: IC50 (nM)
Dear colleague, please return just the value in nM, with no unit written.

The cases that follow already have their IC50 on record.
compound: CC(O)(C#Cc1cc2c(-c3nc(N)ncc3F)cn(C3CN(CC(F)(F)F)C3)c2cn1)C1CC1 (centres unmarked) [Compound 145]
tested.on: Recombinant Human NF-kappaB-Inducing Kinase (NIK/MAP3K14) (Homo sapiens, UniProt Q99558)
IC50 / nM: 140

compound: COCCn1cc(-c2ccnc(N)n2)c2cc(C#CC(C)(O)c3ncco3)ncc21 (centres unmarked) [Compound 31]
tested.on: Recombinant Human NF-kappaB-Inducing Kinase (NIK/MAP3K14) (Homo sapiens, UniProt Q99558)
IC50 / nM: 79

Q. Which IC50 is reported for this compound? CCC(C)(O)C#Cc1cc2c(-c3ccnc(N)n3)cn(CC(C)(C)O)c2cn1 (centres unmarked) [Compound 43]
A. 38

Q. Which IC50 is reported for this compound? CC(C)(O)Cn1cc(-c2nc(N)ncc2Cl)c2cc(C#CC(C)(O)c3nccs3)ncc21 (centres unmarked) [Compound 23]
A. 9

Q. Which IC50 is reported for this compound? CC(C)(O)Cn1cc(-c2nc(N)ncc2Cl)c2cc(C#CC3(O)CC3)ncc21 [Compound 21]
A. 3
